- Tested on: D-425
- experiment-notes: Cell growth assay (viable cell count, trypan blue exclusion)
- Type: cell-based, human
- test-conditions: Homo sapiens, 168 h; 6-thio-dG treatment for 7 days; D-425 (primary)
value-type: IC50 (µM)
Answer in µM, number only, no unit symbol.

Requested read-out: IC50. Entry: Nc1nc2c(ncn2[C@H]2C[C@H](O)[C@@H](CO)O2)c(=S)[nH]1 1.38

###

- System: SaOS2
- experiment-notes: Cell growth assay (viable cell count, trypan blue exclusion)
- Format: cell-based, human
- test-conditions: Homo sapiens, SAOS-2, 168 h; 6-thio-dG treatment for 7 days; SaOS2 (telomerase-negative, ALT-positive)
value-type: IC50 (µM)
Your answer is read as µM, so omit the unit and give the number.

Could you tell me which IC50 is on file for Nc1nc2c(ncn2[C@H]2C[C@H](O)[C@@H](CO)O2)c(=S)[nH]1 ? 7.58
